Assay: In vitro metabolism in liver microsomes, mouse
Assay type: in vitro ADME
Conditions: pH 7.4; mouse liver microsomes; read-out: Inherent clearance rate in liver microsomes
property name: microsomal CLint at 0.193 µM (µL/min/mg)

smiles string: CCN1CCN(Cc2ccc(NC(=O)NCCCCC(=O)Nc3ccccc3)cc2)CC1
microsomal CLint at 0.193 µM / µL/min/mg: 10
--
smiles string: CCN1CCN(Cc2ccc(NC(=O)NCCCCC(=O)Nc3ccc(F)cc3)cc2)CC1
microsomal CLint at 0.193 µM / µL/min/mg: 7.1

---

Assay: In vitro metabolism in liver microsomes, rat
Type: in vitro ADME
Settings: pH 7.4; rat liver microsomes; read-out: Inherent clearance rate in liver microsomes
Method: An in vitro metabolic incubation system with a total volume of 207 μL and an organic solvent less than 1% included 188 μL of a 0.1 mol/L PBS buffer (pH 7.4) and 12 μL of an NADPH generation system (prepared by mixing 10 μL of a solution A and 2 μL of a solution B on an ice bath before use). […] A supernatant was taken and detected by using an ultra-high performance liquid chromatography-quadrupole time-of-flight mass spectrometer.
property name: microsomal CLint at 0.193 µM (µL/min/mg)
The answer is to be given in µL/min/mg; state only the numeric part.

Item: "CCN1CCN(Cc2ccc(NC(=O)NCCCCC(=O)Nc3ccccc3)cc2)CC1" | microsomal CLint at 0.193 µM: 8.4
